meta.source: patent US12344610B2

Biological target: APOL1 G2 (Homo sapiens, UniProt O14791, DEL388-389)
Construct: expressed in transfected cells; host or cells: HEK293 T-REx clonal line stably expressing GCaMP6f (HEK T-REx/GCaMP6f/APOL1 G2 K6.3), doxycycline induced
Sequence (O14791 with tags, fused parts or gaps DEL388-389): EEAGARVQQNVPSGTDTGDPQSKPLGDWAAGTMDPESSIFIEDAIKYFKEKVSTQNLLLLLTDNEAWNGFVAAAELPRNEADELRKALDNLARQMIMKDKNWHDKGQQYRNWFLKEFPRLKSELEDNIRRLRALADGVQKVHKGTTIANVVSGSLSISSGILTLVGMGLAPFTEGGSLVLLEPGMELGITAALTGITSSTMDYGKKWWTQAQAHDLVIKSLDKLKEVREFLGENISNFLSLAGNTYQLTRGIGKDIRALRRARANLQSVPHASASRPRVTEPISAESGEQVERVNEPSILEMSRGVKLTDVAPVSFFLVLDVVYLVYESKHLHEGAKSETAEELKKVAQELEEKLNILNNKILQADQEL
Assay: APOL1-mediated calcium transport (calcium influx) assay, HEK T-REx/GCaMP6f/APOL1 G2 K6.3 cells, FLIPR TETRA
Assay type: cell-based
Details: prevention of calcium influx; geometric mean of at least 2 assay runs; † = average of a technical replicate from a single assay run
Flag rule - AC50 less than 800 nM flags Satisfied; the remaining entries get Not satisfied.

> print(dat)
                                    molecule  class.assignment
 1  CS(=O)(=O)c1ccc(OCCN2CCC3(CC2)C(=O)Nc2ccc(C#N)cc23)cc1C(F)(F)F         Satisfied
 2  C[C@]1(O)C[C@@H](n2cnc3cc(OCCN4CCC5(CC4)C(=O)Nc4ccc(C#N)cc45)cc(F)c32)C1     Not satisfied
 3  Cc1cc(OCCN2CCC3(CC2)C(=O)Nc2ccc(Cl)cc23)cc(C)c1S(C)(=O)=O         Satisfied
 4  O=C1Nc2ccc(Cl)cc2C12CCN(CCOc1ccc(S(=O)(=O)C3(C(=O)N4CCC4)CC3)cc1)CC2     Not satisfied
 5  CS(C)(=O)=Nc1ccc(OCCN2CCC3(CC2)C(=O)Nc2ccc(C#N)cc23)cc1     Not satisfied
 6  C[C@@H](COc1ccc2c(cnn2C)c1)N1CCC2(CC1)C(=O)Nc1ccc(Cl)cc12 (single isomer, unassigned)     Not satisfied
 7  CS(=O)(=O)C1(c2ccc(OCCN3CCC4(CC3)C(=O)Nc3ccc(Cl)cc34)cc2)CC1         Satisfied
 8  NC(=O)c1ccc(OCCN2CCC3(CC2)C(=O)Nc2ccc(Cl)cc23)cn1         Satisfied
 9  O=C1Nc2ccc(Cl)cc2C12CCN(CCOc1ccc(S(=O)(=O)CCO)cc1)CC2         Satisfied
10  CCS(=O)(=O)C1(c2ccc(OCCN3CCC4(CC3)C(=O)Nc3ccc(C#N)cc34)cc2)COC1         Satisfied
11  [2H]C([2H])([2H])N1C(=O)C2(CCN(CCOc3ccc(S(C)(=O)=NC)c(C(F)(F)F)c3)CC2)c2cc(Cl)ccc21 (centres unmarked)         Satisfied
12  CS(=O)(=O)NC1CN(C(=O)c2ccc(OCCN3CCC4(CC3)C(=O)Nc3ccc(Cl)cc34)cc2F)C1     Not satisfied
13  CC1(S(=O)(=O)c2ccc(OCCN3CCC4(CC3)C(=O)Nc3ccc(Cl)cc34)cn2)COC1     Not satisfied
14  C[C@]1(O)C[C@@H](n2ccc3cc(OCCN4CCC5(CC4)C(=O)Nc4ccc(Cl)cc45)cnc32)C1         Satisfied
15  C[C@]1(O)C[C@@H](n2c(=O)[nH]c3cc(OCCN4CCC5(CC4)C(=O)Nc4ccc(C#N)cc45)cc(C(F)(F)F)c32)C1     Not satisfied
16  CC(=O)N1Cc2ccc(OCCN3CCC4(CC3)C(=O)Nc3ccc(Cl)cc34)cc2C1         Satisfied
17  CN(c1ccc(OCCN2CCC3(CC2)C(=O)Nc2ccc(C#N)cc23)cc1)S(C)(=O)=O         Satisfied
18  NC1CN(C(=O)c2ccc(OCCN3CCC4(CC3)C(=O)Nc3ccc(Cl)cc34)cc2F)C1         Satisfied
19  CS(=O)(=O)c1ccc(OCCN2CCC3(CC2)C(=O)Nc2ccccc23)cc1         Satisfied
20  CC(COc1ccc2c(c1)CCC(=O)N2C)N1CCC2(CC1)C(=O)Nc1ccc(Cl)cc12 (centres unmarked) [Compound 199]     Not satisfied
21  CC(c1ccc(OCCN2CCC3(CC2)C(=O)Nc2ccc(C#N)cc23)cc1)S(C)(=O)=O (single isomer, unassigned) [Compound 134]     Not satisfied
22  CS(=O)(=O)c1ccc(OCCN2CCC3(CC2)C(=O)Nc2ccc(C#N)cc23)cc1OC(F)F         Satisfied
23  O=C1NCC2c3ccc(OCCN4CCC5(CC4)C(=O)Nc4ccc(Cl)cc45)cc3CCN12 (single isomer, unassigned) [Compound 116]         Satisfied
24  CC1(C)OC(=O)c2cc(OCCN3CCC4(CC3)C(=O)Nc3ccc(Cl)cc34)cnc21         Satisfied

---

The molecules listed here are annotated with their AC50.
Biological target: APOL1 G2 (Homo sapiens, UniProt O14791, DEL388-389)
Construct: expressed in transfected cells; host or cells: HEK293 T-REx clonal line stably expressing GCaMP6f (HEK T-REx/GCaMP6f/APOL1 G2 K6.3), doxycycline induced
Sequence (O14791 with tags, fused parts or gaps DEL388-389): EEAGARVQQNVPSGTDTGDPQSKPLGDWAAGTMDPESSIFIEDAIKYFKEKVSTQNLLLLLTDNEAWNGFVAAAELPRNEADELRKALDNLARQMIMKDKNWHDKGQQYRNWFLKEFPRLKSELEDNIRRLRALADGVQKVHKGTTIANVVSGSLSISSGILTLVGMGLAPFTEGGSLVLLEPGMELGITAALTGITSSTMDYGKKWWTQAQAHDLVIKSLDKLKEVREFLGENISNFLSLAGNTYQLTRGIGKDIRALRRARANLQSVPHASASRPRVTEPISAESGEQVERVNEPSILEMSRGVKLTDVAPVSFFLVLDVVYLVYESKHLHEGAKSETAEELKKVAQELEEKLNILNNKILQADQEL
Assay: APOL1-mediated calcium transport (calcium influx) assay, HEK T-REx/GCaMP6f/APOL1 G2 K6.3 cells, FLIPR TETRA
Format: cell-based
Conditions: prevention of calcium influx; geometric mean of at least 2 assay runs; † = average of a technical replicate from a single assay run
measured.property: AC50 (nM)

> print(dat)
                                    molecule                         target.under.test  unit.of.measurement  recorded.value
 1  C[C@@H](COc1cc(F)c(S(C)(=O)=O)c(F)c1)N1CCC2(CC1)C(=O)Nc1ccc(C#N)cc12 (single isomer, unassigned)  APOL1 G2 (Homo sapiens, UniProt O14791, DEL388-389)                   nM            1120
 2  CC1(O)CC2(CN(c3ncc(OCCN4CCC5(CC4)C(=O)Nc4ccc(Cl)cc45)cn3)C2)C1  APOL1 G2 (Homo sapiens, UniProt O14791, DEL388-389)                   nM             370
 3  CC(C)(c1ccc(OCCN2CCC3(CC2)C(=O)Nc2ccc(C#N)cc23)cn1)S(C)(=O)=O  APOL1 G2 (Homo sapiens, UniProt O14791, DEL388-389)                   nM            1170
 4  C[C@]1(O)C[C@@H](n2c(=O)cc(C(F)(F)F)c3cc(OCCN4CCC5(CC4)C(=O)Nc4ccc(C(F)F)cc45)cnc32)C1  APOL1 G2 (Homo sapiens, UniProt O14791, DEL388-389)                   nM             780
 5  CNC(=O)N1CCCc2cc(OCCN3CCC4(CC3)C(=O)Nc3ccc(Cl)cc34)ccc21  APOL1 G2 (Homo sapiens, UniProt O14791, DEL388-389)                   nM             652
 6  CS(=O)(=O)c1ccc(OCCN2CCC3(CC2)C(=O)Nc2ccc(C#N)cc23)cc1C(F)CF (single isomer, unassigned) [Compound 221]  APOL1 G2 (Homo sapiens, UniProt O14791, DEL388-389)                   nM             598
 7  O=C1Nc2ccc(Cl)cc2C12CCN(CCOc1ccc3c(c1)CCS3(=O)=O)CC2  APOL1 G2 (Homo sapiens, UniProt O14791, DEL388-389)                   nM             696
 8  CC(C)N1C(=O)Cc2cc(OCCN3CCC4(CC3)C(=O)Nc3ccc(Cl)cc34)ccc21  APOL1 G2 (Homo sapiens, UniProt O14791, DEL388-389)                   nM             465
 9  N#Cc1ccc2c(c1)C1(CCN(CCOc3ccc(C4(C(=O)N5CCC5)COC4)cc3)CC1)C(=O)N2  APOL1 G2 (Homo sapiens, UniProt O14791, DEL388-389)                   nM            1220
10  CN1C(=O)C2(CCN(CCOc3ccc(C4(S(C)(=O)=O)CC(O)C4)cc3)CC2)c2cc(C(F)F)ccc21 (single isomer, unassigned)  APOL1 G2 (Homo sapiens, UniProt O14791, DEL388-389)                   nM             769
11  Cc1cc(OCCN2CCC3(CC2)C(=O)Nc2ccc(Cl)cc23)ccc1S(C)(=O)=O  APOL1 G2 (Homo sapiens, UniProt O14791, DEL388-389)                   nM             772
12  C[C@]1(O)C[C@@H](n2cnc3cc(OCCN4CCC5(CC4)C(=O)Nc4ccc(C(F)F)cc45)cc(C(F)(F)F)c32)C1  APOL1 G2 (Homo sapiens, UniProt O14791, DEL388-389)                   nM            2270
13  CC(C)(O)c1ncc(OCCN2CCC3(CC2)C(=O)Nc2ccc(Cl)cc23)cn1  APOL1 G2 (Homo sapiens, UniProt O14791, DEL388-389)                   nM             649
